# Test system: A549 NSCLC
# MEASUREMENT_DESCRIPTION: NCI tumour cell line growth inhibition, 48 h; in the data active = GI50 below about 0.43 µM; inactive = the rest
Could you please pick one outcome from this set? active, inactive

These recorded examples may help you get a feel for the data.
CNC(P(=O)([O-])[O-])P(=O)([O-])[O-].N.N.[Pt+2]    inactive
COc1ccc(-c2nn3ncccc3c2-c2ccnc(Nc3ccc(Cl)c(C(F)(F)F)c3)n2)cc1    inactive
CS(=O)(=O)CCNCc1nc(-c2ccc3ncnc(Nc4ccc(F)c(Cl)c4)c3c2)cs1    inactive
CCOC(=O)c1ccc(NC(=O)N2CC(C)OC(C)C2)cc1 (centres undefined)    inactive
COc1ccc2c(c1)[nH]c(=O)c1c3cc(C)c(C)cc3cn21    active

Each molecule tested received a call. Report the one for `COc1cc(O)c([C@@H]2C[C@H](CCc3ccc(O)cc3)O[C@H](c3ccc(O)cc3)C2)c(O)c1C(=O)/C=C/c1ccc(O)cc1` .
inactive

----------
# System: OVCAR-3 ovarian
# MEASUREMENT_DESCRIPTION: NCI tumour cell line growth inhibition, 48 h; in the data active = GI50 below about 0.43 µM; inactive = the rest
Could you please pick one outcome from this set? YES = active, NO = inactive

Each compound tested received a call. Report the one for `O=c1oc2cc(OS(=O)(=O)c3ccc(F)cc3)ccc2c2c1CCCCC2` .
NO

Each compound tested received a call. Report the one for `CC(=O)Nc1ccc2c(c1)c(C1=C(c3cn(C)c4ccccc34)C(=O)NC1=O)cn2C` .
NO

Each compound tested received a call. Report the one for `COc1cc(-c2nn(-c3ccc(NC(=O)c4ccc(Cl)c(Cl)c4)cc3)cc2-c2ccncc2)ccc1Cl` .
NO

Each compound tested received a call. Report the one for `CCC[CH2][Sn-]([CH2]CCC)([CH2]CCC)[O]c1cc(Cl)c(Cl)cc1Cl` .
YES

Each compound tested received a call. Report the one for C=C1CC2(OC1=O)C(=O)N(CCCCCCCN1C(=O)C3(CC(=C)C(=O)O3)c3ccccc31)c1ccccc12 (stereo not drawn) .
NO

Each compound tested received a call. Report the one for `COc1ccc2c(c1)[nH]c(=O)c1c3cc(C)c(C)cc3cn21` .
YES

Each compound tested received a call. Report the one for `O=C(Oc1ccc(Cl)cc1Cl)c1ccccc1Nc1ccnc(C(F)(F)F)c1` .
NO

Each compound tested received a call. Report the one for `C=C1C(=O)O[C@H]2[C@H]1CC/C(Cn1cc(CNC(=O)Cc3cn(C(=O)c4ccc(Cl)cc4)c4ccc(OC)cc34)nn1)=C\CC[C@@]1(C)O[C@@H]21` .
NO

Each compound tested received a call. Report the one for `Cc1ccc2[nH]cc(-c3nc(-c4c[nH]c5ncccc45)cs3)c2c1` .
NO

Each compound tested received a call. Report the one for `CS(=O)(=O)CCNCc1nc(-c2ccc3ncnc(Nc4ccc(F)c(Cl)c4)c3c2)cs1` .
NO

----------
# Test system: MCF7 breast
# MEASUREMENT_DESCRIPTION: NCI tumour cell line growth inhibition, 48 h
Consider the following molecules; for each one, report its TGI.
Answers are plain numbers, in µM.

Worked examples follow.
COc1cc(O)c([C@@H]2C[C@H](CCc3ccc(O)cc3)O[C@H](c3ccc(O)cc3)C2)c(O)c1C(=O)/C=C/c1ccc(O)cc1    4.61
Cc1ccc(CNc2c3ccccc3nc3ccccc23)cc1    5.03
COc1ccc(N=C2CSc3nnc(-c4cc(F)c(Cl)cc4Cl)n3N2)cc1    19.8
CCN(CC)Cc1nc2sc3c(c2c(=O)n1-c1ccccc1)CCCC3    36
COc1cc2c3cc1Oc1c(O)c(OC)cc4c1[C@H](Cc1ccc(cc1)Oc1cc(ccc1O)C[C@H]3N(C)CC2)N(C)CC4    44.4

Query for MCF7 breast: what TGI does the record show for O=C1C(Br)=CC2([N+](=O)[O-])CCNc3c(O)c4c5c(c3C2=C1Br)=NCCC=5C=N4 (configuration not stated) ?
1.72

----------
Consider the following molecules; for each one, report its TGI.
# System: COLO 205 colon
# MEASUREMENT_DESCRIPTION: NCI tumour cell line growth inhibition, 48 h
Give bare numbers, in µM.

Could you tell me TGI for each of these molecules? They are listed below.
1. O=C(c1ccccc1)C(c1ccccc1)C1(O)C(=O)Nc2c(Cl)cc(Cl)cc21 (centres undefined)
2. Cc1ccc([N+](=O)[O-])cc1S(=O)(=O)Nc1ccc(C2=NN(c3ccc([N+](=O)[O-])cc3[N+](=O)[O-])C(c3ccccc3)C2)cc1 (centres undefined)
3. COC(=O)C12Oc3ccc(-c4ccc5c(c4O)C(=O)C4=CCC(C)C(O)C4(C(=O)OC)O5)c(O)c3C(=O)C1=CCC(C)C2O (centres undefined)

[33.7, 37.4, 2.75]

For the molecule `Cc1ccc2c(=O)cc(-c3csc4ccccc34)[nH]c2n1` , what TGI is on record?
0.756

----------
Consider the following molecules; for each one, report its TGI.
# Tested on: UO-31 renal
# MEASUREMENT_DESCRIPTION: NCI tumour cell line growth inhibition, 48 h

Worked examples follow.
CCOC/N=C(/N)NC#N    > 100 µM
COc1cc(OC)c([C@@H]2OC(=O)C3C2C(=O)O[C@H]3c2cc(OC)c(OC)cc2OC)cc1OC (some centres not stated)    > 100 µM
Cc1ccc([N+](=O)[O-])cc1S(=O)(=O)Nc1ccc(C2=NN(c3ccc([N+](=O)[O-])cc3[N+](=O)[O-])C(c3ccccc3)C2)cc1 (configuration not stated)    31.3 µM
COc1ccc(N2C=Nn3c(nc4sc(C)c(C)c4c3=O)C2)cc1    > 100 µM
CS(=O)(=O)CCNCc1nc(-c2ccc3ncnc(Nc4ccc(F)c(Cl)c4)c3c2)cs1    > 25 µM
CSc1nc(NC2CCCC2)c2cc[nH]c2n1    > 100 µM

Could you tell me TGI for each of these molecules? They are listed below.
1. COc1cc([C@H]2c3cc4c(cc3O[C@@]3(O)COC(=O)[C@@H]23)OCO4)cc(OC)c1OC
2. CC(=O)C(C(C)=O)=C1CCCC(O)O1 (configuration not stated)

1. > 100 µM
2. > 100 µM

Could you tell me TGI for each of these molecules? They are listed below.
1. O=C(CCCn1cnc([N+](=O)[O-])n1)NCCn1ccnc1[N+](=O)[O-]
2. Nc1nc(SCc2ccccn2)c2ncn(C3CCCC3)c2n1
3. CCCC/C=C1\CCC(CN2CCCCC2)C1=O (configuration not stated)
4. COc1nc(N(C)O)nc(N(C)O)n1
5. O=C(Nc1ccccc1)O/N=C(/CBr)c1ccccc1
6. O=C(NNc1nc(Cl)nc(N2CCN(C(c3ccccc3)c3ccccc3)CC2)n1)c1ccccc1

["> 100 µM", "32.7 µM", "47.7 µM", "> 100 µM", "32.4 µM", "17.2 µM"]

Could you tell me TGI for each of these molecules? They are listed below.
1. CCc1cccc(C(C)C)c1NC(=O)C(=O)C(Cc1nc2ccccc2[nH]c1=O)C(=O)OC (configuration not stated)
2. CCN(CC)Cc1nc2sc3c(c2c(=O)n1-c1ccccc1)CCCC3
3. Cc1cc2c(c(C#N)c1C)NC(=O)CCC2=O
4. N#CC1=C2Sc3ccccc3N2[C@H](c2ccccc2)[C@H]2COC(=O)[C@@H]12
5. COc1ccc2c(c1)OC(c1cccnc1)C(c1ccccc1)C2=O (configuration not stated)

1: > 100 µM; 2: 23.3 µM; 3: 91.4 µM; 4: > 100 µM; 5: > 100 µM

----------
Consider the following compounds; for each one, report its TGI.
# System: MOLT-4 leukemia
# MEASUREMENT_DESCRIPTION: NCI tumour cell line growth inhibition, 48 h
Answers are plain numbers, in µM.

Worked examples follow.
CCOC(=O)/C(=C\NCC(O)c1ccccc1)c1nc2ccccc2[nH]1 (configuration not stated)    34.3
CC[C@H](C)N(CCN)C(=O)c1cc2ccccc2c(-c2ccccc2Cl)n1    24.9
Cc1cc2c(cc1Cl)Sc1nnc(Nc3ccccc3)n1S2(=O)=O    13.5
CCOC(=O)C(=O)Nc1nc2c(s1)C(=O)c1ccccc1C2=O    18.9
COc1ccc(Cl)cc1Nc1nc(C(F)(F)F)ccc1C(=O)N/N=C/c1c(Cl)cccc1Cl    10.7
COC(=O)N[C@H]1CCc2c(Br)c(OC)c(OC)c(OC)c2-c2ccc(SC)c(=O)cc21    21.7
COc1ccc2nc3cc(Cl)ccc3c(NCCCCCC(=O)NC(COc3cnc4c(ccc5cccnc54)c3)COc3cnc4c(ccc5cccnc54)c3)c2c1    11.6
Cc1cnoc1NC1=CC(=O)C(=O)c2ccccc21    38.8

Could you tell me TGI for each of these compounds? They are listed below.
1. C=C1C(=O)O[C@H]2[C@H]1CC/C(COC(=O)c1cc3cc(F)ccc3[nH]1)=C\CC[C@@]1(C)O[C@@H]21
2. Brc1ccc(N=NN2CCCCC2)cc1

1: 9.23; 2: 46.2

Could you tell me TGI for each of these compounds? They are listed below.
1. CCN(CC)CCOc1nc2ccc(OC)cc2c2c1-c1ccc(OC)cc1C2=O
2. CNC(=O)c1cc(OC2CCC(NC(=O)Nc3ccc(Cl)c(C(F)(F)F)c3)CC2)ccn1 (configuration not stated)
3. C=CC[C@H]1[C@@H](O[Si](C)(C)C(C)(C)C)[C@H](n2ccc(=O)[nH]c2=O)O[C@@H]1CO[Si](C)(C)C(C)(C)C
4. O=C(NNc1nc(Cl)nc(N2CCN(C(c3ccccc3)c3ccccc3)CC2)n1)c1ccccc1
5. CCN(CC)Cc1nc2sc3c(c2c(=O)n1-c1ccccc1)CCCC3
6. CC(=O)O/C=C\OC1CCCC1(c1ccccc1)c1ccccc1 (configuration not stated)
7. c1ccc(CNc2c3c(nc4ccccc24)CCC3)cc1

[1.85, 21.5, 8.66, 5.13, 56.7, 9.07, 51]

Could you tell me TGI for each of these compounds? They are listed below.
1. Cn1c(=O)nc2n(-c3ccc(Cl)cc3)c3ccc(Cl)cc3nc-2c1=O
2. Cc1ccc([N+](=O)[O-])cc1S(=O)(=O)Nc1ccc(C2=NN(c3ccc([N+](=O)[O-])cc3[N+](=O)[O-])C(c3ccccc3)C2)cc1 (configuration not stated)

65.7
70.8
